assay: Assay for oral absorbability: plasma drug concentration in rats after intravenous (1 mg/kg) and oral (3 mg/kg) administration (Cmax, bioavailability, C360); type: in vivo; conditions: oral administration, 3 mg/kg, SD rats; class symbols
RECORDED METRIC: C360 (plasma drug concentration at 360 minutes after administration)

CC(C)(Oc1ccc(Cl)c(-n2c(=O)[nH]c3csc(C(=O)O)c3c2=O)c1)c1ccccc1: A (A: >1000 ng/mL)
COc1cc(F)c(-n2c(=O)[nH]c3csc(C(=O)O)c3c2=O)cc1OCc1c(OC)ccc(F)c1F: A (A: >1000 ng/mL)
CC(C)(C(=O)c1ccc(Cl)c(-n2c(=O)[nH]c3csc(C(=O)O)c3c2=O)c1)c1ccccc1: A (A: >1000 ng/mL)
COCCOc1ccc(F)c(F)c1COc1ccc(F)c(-n2c(=O)[nH]c3csc(C(=O)O)c3c2=O)c1: A (A: >1000 ng/mL)

Let us examine a further case.
C360 (plasma drug concentration at 360 minutes after administration) for `COc1cc(F)c(-n2c(=O)[nH]c3csc(C(=O)O)c3c2=O)cc1COc1c(OC)ccc(F)c1F` is A (A: >1000 ng/mL)

* * *

molecular target: human GnRH receptor1 (GnRHR1) (Homo sapiens (Human)); assay: Assay of GnRH antagonizing effect: inhibition of GnRH-stimulated intracellular calcium flux in HEK293 cells transiently expressing human GnRHR1; details: 5 nM GnRH, FLIPR calcium dye, read-out: IC50 (drug concentration at which 50% GnRH-stimulated intracellular calcium flux was inhibited)
Sequence (P30968 whole entry): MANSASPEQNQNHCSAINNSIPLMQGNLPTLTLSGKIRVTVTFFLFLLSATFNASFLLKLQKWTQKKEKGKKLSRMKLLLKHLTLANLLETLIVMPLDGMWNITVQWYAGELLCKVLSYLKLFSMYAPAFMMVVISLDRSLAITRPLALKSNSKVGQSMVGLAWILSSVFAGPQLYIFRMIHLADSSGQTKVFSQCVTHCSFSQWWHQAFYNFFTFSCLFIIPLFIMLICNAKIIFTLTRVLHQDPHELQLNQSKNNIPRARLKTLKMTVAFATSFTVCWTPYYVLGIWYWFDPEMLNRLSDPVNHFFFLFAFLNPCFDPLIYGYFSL
RECORDED METRIC: IC50 (nM)

Below, 5 compounds whose answers are already recorded.
COc1cc(F)c(-n2c(=O)[nH]c3csc(C(=O)O)c3c2=O)cc1CN(C)c1c(F)cccc1F [Example 420]: 29
CNC(=O)c1scc2[nH]c(=O)n(-c3cc(S(=O)(=O)N4CCCc5ccccc54)ccc3Cl)c(=O)c12 [Example 31]: 272
COc1cc(F)c(-n2c(=O)[nH]c3csc(C(=O)O)c3c2=O)cc1OCc1c(OC)ccc(F)c1F [Example 233]: 15
COCCOc1ccc(F)c(F)c1COc1ccc(F)c(-n2c(=O)[nH]c3csc(C(=O)O)c3c2=O)c1 [Example 367]: 15
CN(C(=O)c1ccc(Cl)c(-n2c(=O)[nH]c3csc(C(=O)O)c3c2=O)c1)c1ccccc1 [Example 95]: 19

P. O=c1[nH]c2sccc2c(=O)n1-c1cc(S(=O)(=O)N2CCCc3ccccc32)ccc1Cl [Example 3]
Q. CC(C)(C(=O)c1ccc(Cl)c(-n2c(=O)[nH]c3csc(C(=O)O)c3c2=O)c1)c1ccccc1 [Example 146]
Task: Form: Entry with minimum IC50 (choose one): P / Q Please respond with the label that marks your chosen entry.
Output: Q
(Q: 10 nM, P: 80 nM)
